Taken from ChEMBL document CHEMBL1131733.

# method_notes: Antagonistic Alpha-1 adrenergic receptor activity against phenylephrine-induced contraction of rabbit prostate
# Format: functional, Oryctolagus cuniculus
Tag: Met if measured pA2 is not below 7, Not met if it is.

[[record]]
compound = "COc1ccccc1N1CCN(CCCOc2cc(C(=O)Nc3ccccc3OCCCC(=O)O)ccc2OCc2ccccc2)CC1"
discrete_label = "Met"

[[record]]
compound = "COc1ccccc1N1CCN(CCC(Oc2ccc(C(=O)Nc3ccccc3OCCCC(=O)O)cc2)c2ccccc2)CC1 (stereo unspecified)"
discrete_label = "Met"


Consider the record given below.
Has COc1ccccc1N1CCN(CCCCOc2cc(C(=O)c3cn(CCCC(=O)O)c4ccccc34)ccc2OCc2ccc(C)cc2)CC1 a recorded pA2 greater than or equal to 7?
Not met
